Reference source for all entries: ChEMBL document CHEMBL1799925

- assay: AUC (0 to infinity) in 129/SvEvBrd X C57BL/6 F1 mouse at 10 mg/kg, po by LC/MS/MS analysis
- Type: ADME, organism-based, Plasma
- Set-up: time infinity, dose 10 mg/kg, route oral
- condition info: 129/SvEvBrd X C57BL/6 F1, mouse, plasma
In this section we review reported AUC(0-inf) values for a set of molecules.
// return numeric value only (unit: µM·h, not printed)

Worked examples follow.
>  <smiles repr>
Cl.OC[C@@H](O)[C@@H](O)[C@H](O)c1c[nH]c(-c2cc(-c3ccccc3)on2)n1

>  <AUC(0-inf) / µM·h>
10.3

$$$$
>  <smiles repr>
CC(C)c1cc(-c2nc([C@@H](O)[C@H](O)[C@H](O)CO)c[nH]2)no1.Cl

>  <AUC(0-inf) / µM·h>
12.8

$$$$
>  <smiles repr>
Cl.OC[C@@H](O)[C@@H](O)[C@H](O)c1c[nH]c(-c2cc(C3CC3)on2)n1

>  <AUC(0-inf) / µM·h>
9.6

$$$$

Value of AUC(0-inf) reported for the molecule CC(=O)c1c(-c2nc([C@@H](O)[C@H](O)[C@H](O)CO)c[nH]2)noc1C.Cl is 11.7
